Property: viability, T/C; scope: individual compounds
Test system: 186277-243-T-J2-PDC spheroids with HUVEC/MSC, viability
PROCEDURE_DETAILS: Anticancer human tumor 186277-243-T-J2-PDC patient-derived colon adenocarcinoma cell line growth inhibition [CLK]
SETTINGS: second compound 10 µM; first compound 0.316 µM; active compounds read low
Reply numerically in %, unit not repeated.

Record excerpt, results attached:
COMPOUND | SYSTEM_UNDER_TEST | viability, T/C [%]
COC1C=CCC(C)C(C)S(=O)(=O)NC(=O)c2ccc3c(c2)N(CC2CCC21)CC1(CCCc2cc(Cl)ccc21)CO3 (stereo not drawn) + CNC(=O)c1ccc(Nc2nc(OC3CCCC3)c3c(-c4ccc5nc(C)oc5c4)c[nH]c3n2)c(OC)c1 | 186277-243-T-J2-PDC spheroids with HUVEC/MSC, viability | 20.5
C=C(F)C(=O)N1CCN(c2nc(OCC3CCCN3C)nc3c2CCN(c2cccc4cccc(Cl)c24)C3)CC1CC#N (stereo not drawn) + CNC(=O)c1ccc(Nc2nc(OC3CCCC3)c3c(-c4ccc5nc(C)oc5c4)c[nH]c3n2)c(OC)c1 | 186277-243-T-J2-PDC spheroids with HUVEC/MSC, viability | 37.9

From here, focus on the item given below.
[in] Output measured viability, T/C for this item: CCc1c2c(nc3ccc(O)cc13)-c1cc3c(c(=O)n1C2)COC(=O)[C@]3(O)CC + CN1CCN(c2cc(C(=O)Nc3cc4cc(-c5cnn(C)c5)ccc4cn3)ccn2)CC1
[out] 0.67

* * *

Property: viability, T/C; scope: individual molecules
System: 186277-243-T-J2-PDC spheroids with HUVEC/MSC, viability
PROCEDURE_DETAILS: Anticancer human tumor 186277-243-T-J2-PDC cell line growth inhibition [CLK]
SETTINGS: second compound 1 µM; first compound 0.03 µM; active compounds read low
Reply numerically in %, unit not repeated.

Record excerpt, results attached:
MOLECULE | QUANTITY_UNIT | viability, T/C
C=CC(=O)Nc1cc(Nc2nccc(-c3cn(C)c4ccccc34)n2)c(OC)cc1N(C)CCN(C)C + CNC(=O)c1ccc(Nc2nc(OC3CCCC3)c3c(-c4ccc5nc(C)oc5c4)c[nH]c3n2)c(OC)c1 | % | 30.3
C=CC(=O)Nc1cc(Nc2nccc(-c3cn(C)c4ccccc34)n2)c(OC)cc1N(C)CCN(C)C + CN1CCN(c2cc(C(=O)Nc3cc4cc(-c5cnn(C)c5)ccc4cn3)ccn2)CC1 | % | 0.36

[in] Output measured viability, T/C for this item: NC(=O)C(=Cn1cnc(-c2cc(C(F)(F)F)cc(C(F)(F)F)c2)n1)c1cncnc1 + CN1CCN(c2cc(C(=O)Nc3cc4cc(-c5cnn(C)c5)ccc4cn3)ccn2)CC1
[out] 1.1

* * *

Tested on: 186277-243-T-J2-PDC spheroids with HUVEC/MSC, viability
PROCEDURE_DETAILS: Anticancer human tumor 186277-243-T-J2-PDC cell line growth inhibition [CLK];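 further: compound exposure lasted seven days before readout; 100% = DMSO vehicle control wells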
SETTINGS: second compound 1 µM; first compound 0.000949 µM; active compounds read low
Property: viability, T/C; scope: individual molecules
Reply numerically in %, unit not repeated.

Record excerpt, results attached:
MOLECULE | SYSTEM_UNDER_TEST | viability, T/C [%]
C=CC(=O)Nc1cc(Nc2nccc(-c3cn(C)c4ccccc34)n2)c(OC)cc1N(C)CCN(C)C + CNC(=O)c1ccc(Nc2nc(OC3CCCC3)c3c(-c4ccc5nc(C)oc5c4)c[nH]c3n2)c(OC)c1 | 186277-243-T-J2-PDC spheroids with HUVEC/MSC, viability | 37.4
CC(C)CC(NC(=O)C(Cc1ccccc1)NC(=O)c1cnccn1)B(O)O (centres undefined) + CN1CCN(c2cc(C(=O)Nc3cc4cc(-c5cnn(C)c5)ccc4cn3)ccn2)CC1 | 186277-243-T-J2-PDC spheroids with HUVEC/MSC, viability | 0.5
C=CC(=O)Nc1cc(Nc2nccc(-c3cn(C)c4ccccc34)n2)c(OC)cc1N(C)CCN(C)C + CN1CCN(c2cc(C(=O)Nc3cc4cc(-c5cnn(C)c5)ccc4cn3)ccn2)CC1 | 186277-243-T-J2-PDC spheroids with HUVEC/MSC, viability | 0.45

From here, focus on the item given below.
[in] Output measured viability, T/C for this item: CC(C)CC(NC(=O)C(Cc1ccccc1)NC(=O)c1cnccn1)B(O)O (centres undefined) + CNC(=O)c1ccc(Nc2nc(OC3CCCC3)c3c(-c4ccc5nc(C)oc5c4)c[nH]c3n2)c(OC)c1
[out] 36.5

* * *

Test system: 186277-243-T-J2-PDC spheroids with HUVEC/MSC, viability
PROCEDURE_DETAILS: Anticancer human tumor 186277-243-T-J2-PDC cell line growth inhibition [CLK];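 further: compound exposure lasted seven days before readout; 100% = DMSO vehicle control wells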
SETTINGS: second compound 0.1 µM; first compound 0.1 µM; active compounds read low
VALUE_TYPE: viability, T/C (%)
Reply numerically in %, unit not repeated.

Record excerpt, results attached:
COMPOUND | VALUE_TYPE | VALUE
CCN1CCN(Cc2ccc(Nc3ncc(F)c(-c4cc(F)c5nc(C)n(C(C)C)c5c4)n3)nc2)CC1 + CN1CCN(c2cc(C(=O)Nc3cc4cc(-c5cnn(C)c5)ccc4cn3)ccn2)CC1 | viability, T/C | 79.5
COC1C=CCC(C)C(C)S(=O)(=O)NC(=O)c2ccc3c(c2)N(CC2CCC21)CC1(CCCc2cc(Cl)ccc21)CO3 (stereo not given) + CNC(=O)c1ccc(Nc2nc(OC3CCCC3)c3c(-c4ccc5nc(C)oc5c4)c[nH]c3n2)c(OC)c1 | viability, T/C | 50.2
O=c1[nH]cc(F)c(=O)[nH]1 + CN1CCN(c2cc(C(=O)Nc3cc4cc(-c5cnn(C)c5)ccc4cn3)ccn2)CC1 | viability, T/C | 76.6

[in] Output measured viability, T/C for this item: COc1c(OCCCN2CCOCC2)ccc2c3n(c(=NC(=O)c4cnc(N)nc4)nc12)CCN3 + CNC(=O)c1ccc(Nc2nc(OC3CCCC3)c3c(-c4ccc5nc(C)oc5c4)c[nH]c3n2)c(OC)c1
[out] 9.52

[in] Output measured viability, T/C for this item: C=C(F)C(=O)N1CCN(c2nc(OCC3CCCN3C)nc3c2CCN(c2cccc4cccc(Cl)c24)C3)CC1CC#N (stereo not given) + CN1CCN(c2cc(C(=O)Nc3cc4cc(-c5cnn(C)c5)ccc4cn3)ccn2)CC1
[out] 76.7

* * *

System: 186277-243-T-J2-PDC spheroids with HUVEC/MSC, viability
PROCEDURE_DETAILS: Anticancer human tumor 186277-243-T-J2-PDC cell line growth inhibition [CLK];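 further: compound exposure lasted seven days before readout; 100% = DMSO vehicle control wells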
SETTINGS: second compound 1 µM; first compound 10 µM; active compounds read low
Binary call on viability, T/C with cut-off 0.6%: strictly below means MET, and equality or higher means NOT MET.

Illustrative cases are given below, each with its answer.
MOLECULE | ASSIGNED_CLASS
CC1COCCN1c1cc(C2(S(C)(=N)=O)CC2)nc(-c2ccnc3[nH]ccc23)n1 (stereo not given) + CNC(=O)c1ccc(Nc2nc(OC3CCCC3)c3c(-c4ccc5nc(C)oc5c4)c[nH]c3n2)c(OC)c1 | NOT MET
Nc1ccn(C2OC(CO)C(O)C2(F)F)c(=O)n1 (stereo not given) + CN1CCN(c2cc(C(=O)Nc3cc4cc(-c5cnn(C)c5)ccc4cn3)ccn2)CC1 | NOT MET

[in] Is the reported viability, T/C for COC1C=CCC(C)C(C)S(=O)(=O)NC(=O)c2ccc3c(c2)N(CC2CCC21)CC1(CCCc2cc(Cl)ccc21)CO3 (stereo not given) + CNC(=O)c1ccc(Nc2nc(OC3CCCC3)c3c(-c4ccc5nc(C)oc5c4)c[nH]c3n2)c(OC)c1 strictly below 0.6%?
[out] NOT MET

[in] Is the reported viability, T/C for C#Cc1c(F)ccc2cc(O)cc(-c3ncc4c(N5CC6CCC(C5)N6)nc(OCC56CCCN5CC(F)C6)nc4c3F)c12 (stereo not given) + CN1CCN(c2cc(C(=O)Nc3cc4cc(-c5cnn(C)c5)ccc4cn3)ccn2)CC1 strictly below 0.6%?
[out] MET

[in] Is the reported viability, T/C for CCCS(=O)(=O)Nc1ccc(F)c(C(=O)c2c[nH]c3ncc(-c4ccc(Cl)cc4)cc23)c1F + CN1CCN(c2cc(C(=O)Nc3cc4cc(-c5cnn(C)c5)ccc4cn3)ccn2)CC1 strictly below 0.6%?
[out] MET

* * *

Test system: 186277-243-T-J2-PDC spheroids with HUVEC/MSC, viability
PROCEDURE_DETAILS: Anticancer human tumor 186277-243-T-J2-PDC cell line growth inhibition [CLK];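 further: compound exposure lasted seven days before readout; 100% = DMSO vehicle control wells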
SETTINGS: second compound 10 µM; first compound 3.16 µM; active compounds read low
Binary call on viability, T/C with cut-off 20%: strictly below means true, and equality or higher means false.

Illustrative cases are given below, each with its answer.
MOLECULE | ASSIGNED_CLASS
COC1C=CCC(C)C(C)S(=O)(=O)NC(=O)c2ccc3c(c2)N(CC2CCC21)CC1(CCCc2cc(Cl)ccc21)CO3 (stereo not given) + CNC(=O)c1ccc(Nc2nc(OC3CCCC3)c3c(-c4ccc5nc(C)oc5c4)c[nH]c3n2)c(OC)c1 | true
CCCS(=O)(=O)Nc1ccc(F)c(C(=O)c2c[nH]c3ncc(-c4ccc(Cl)cc4)cc23)c1F + CNC(=O)c1ccc(Nc2nc(OC3CCCC3)c3c(-c4ccc5nc(C)oc5c4)c[nH]c3n2)c(OC)c1 | false
O=c1[nH]cc(F)c(=O)[nH]1 + CN1CCN(c2cc(C(=O)Nc3cc4cc(-c5cnn(C)c5)ccc4cn3)ccn2)CC1 | true
CCCS(=O)(=O)Nc1ccc(F)c(C(=O)c2c[nH]c3ncc(-c4ccc(Cl)cc4)cc23)c1F + CN1CCN(c2cc(C(=O)Nc3cc4cc(-c5cnn(C)c5)ccc4cn3)ccn2)CC1 | true
COc1ccc([C@@H](O)c2cc(-c3ncnc4cc(N5CCOCC5)ccc34)c(F)cc2Cl)nn1 + CNC(=O)c1ccc(Nc2nc(OC3CCCC3)c3c(-c4ccc5nc(C)oc5c4)c[nH]c3n2)c(OC)c1 | true

[in] Is the reported viability, T/C for C=CC(=O)N1CCN(c2nc(=O)n(-c3c(C)ccnc3C(C)C)c3nc(-c4c(O)cccc4F)c(F)cc23)C(C)C1 (stereo not given) + CNC(=O)c1ccc(Nc2nc(OC3CCCC3)c3c(-c4ccc5nc(C)oc5c4)c[nH]c3n2)c(OC)c1 strictly below 20%?
[out] false

[in] Is the reported viability, T/C for CC(=O)O[C@H]1C(=O)[C@@]2(C)[C@H]([C@H](OC(=O)c3ccccc3)[C@]3(O)C[C@H](OC(=O)[C@H](O)[C@@H](NC(=O)c4ccccc4)c4ccccc4)C(C)=C1C3(C)C)[C@]1(OC(C)=O)CO[C@@H]1C[C@@H]2O + CNC(=O)c1ccc(Nc2nc(OC3CCCC3)c3c(-c4ccc5nc(C)oc5c4)c[nH]c3n2)c(OC)c1 strictly below 20%?
[out] false
